tgt: T1, human SIRPγ isoform 1 (human, UniProt Q9P1W8 29-147)
T1 construct: also called Gamma; Human SIRPg
experiment: SPR Koff +/-

>  <binder>
antibody 161 (antibody, V domains shown, also called S161) VH: DVQLVESGGGVVRPGESLRLSCAASGFTFSNFAMTWVRQAPGKGPEWVSLVSVTATTYYADSVKGRFTISRDNSKSTLYLQMNSLRAEDTAVYYCAKITWNNLFDYWGLGTLVTVSS VL: EIVLTQSPGTLSLSPGERATLSCRASQTVGSKLAWYQQKPGQAPRLLIYDSSSRASGIPDRFSGSGSGTDFTLTISSLQSEDSAVYYCQQHNDWPPYTFGGGTKVEIK

>  <binding result>
no binding

$$$$
>  <binder>
antibody 173 (antibody, V domains shown, also called S173) VH: DVQLVESGGGVVRPGESLRLSCAASGFAFSDHDMSWVRQGPGEGLEWVAGISLRGGVTWYADSVKGRFTISRDNSKNTLYLRLFSLRTEDTAIYYCARESWNTFFDYWGLGTLVTVSS VL: EIVLTQSPGTLSLSPGETATLSCRASQNVRSNLAWYQQKPGQAPRLLIYDASSRATGIPDRFSGSGSGTDFTLTISSLQSEDFAVYYCQQYGNGPPLTFGGGTKVEIK

>  <binding result>
no binding

$$$$
>  <binder>
antibody 122 (antibody, V domains shown, also called S122) VH: VQLVESGGGVVRPGESLRLSCAASGFRFSNFAMTWVRQAPGEGLEWVSTIGSGDTYYADSVKGRFTISRDNSKNTLYLQMNSLRAEDTAVYYCAKDSTVSWSGDFFDYWGLGTLVTVSS VL: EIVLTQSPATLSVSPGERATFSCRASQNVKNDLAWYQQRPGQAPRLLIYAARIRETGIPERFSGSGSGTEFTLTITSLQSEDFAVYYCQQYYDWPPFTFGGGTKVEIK

>  <binding result>
binds

$$$$
